# maps each entry to its GI50
Tested on: OVCAR-8
Assay: NCI tumour cell line growth inhibition, 48 h
The source made the active and inactive calls. Rule as the data show it: active = GI50 up to about 1.1 µM and inactive = higher.

compound	testTarget	GI50
CC12CC(=O)Nc3ccccc3N1C(c1ccccc1)=NO2 (stereo not given)	OVCAR-8	> 100 µM (inactive)
CCCCCCCSCC1C(=O)C23C(O)C1CCC2C12COC3(O)C(O)C1C(C)(C)CCC2O (stereo not given)	OVCAR-8	16.4 µM (inactive)
Cc1ccc(-c2nnc(CCCCCCCCc3nnc(-c4ccc(C)cc4O)n3N)n2N)c(O)c1	OVCAR-8	> 100 µM (inactive)
CSC(=S)NN=C1CCCCC1	OVCAR-8	8.93 µM (inactive)
C/C(=N/NC(=O)C(N)=O)C(CC(C(=O)Nc1ccccc1C)/C(C)=N\NC(=O)C(N)=O)C(=O)Nc1ccccc1C (stereo not given)	OVCAR-8	> 100 µM (inactive)

* * *

Measured GI50 by item
Tested on: RXF 393
Experiment: NCI tumour cell line growth inhibition, 48 h
The source made the active and inactive calls. No stated cut-off is given here; in the data, active = GI50 up to about 1.1 µM and inactive = higher.

compound	GI50
CC(=O)Nc1ccc(-c2nc3ccccc3s2)cc1Cl	26.5 µM (inactive)
O=C(/C=C/c1ccc(OCc2ccccc2)cc1)NCc1ccc(C(=O)NCCc2ccccc2)cc1	64.1 µM (inactive)
COc1ccc(NC(=O)CC(=O)N2N=C(N3CCCCC3)CC2c2ccccc2)cc1 (centres undefined)	> 100 µM (inactive)
Cc1noc(C)c1/N=N/c1ccc2nonc2c1N	> 100 µM (inactive)
COC(=O)C1CCC(=O)N1CN(C(C)=O)c1cc(OC)ccc1OC (centres undefined)	> 100 µM (inactive)
Cc1nc(-c2cc3cc(Cl)ccc3oc2=O)cc2c1c(=O)oc1ccc(Cl)cc12	> 100 µM (inactive)
Cc1cc(C)c2[s+]snc2c1	37.4 µM (inactive)
Cc1nc2c(Br)cc(Br)cc2c(=O)n1-c1ccccc1NC1OC(CO)C(O)C(O)C1O (centres undefined)	> 100 µM (inactive)
COc1cc(-c2cc(=O)c3c(OC)c(OC)c(OC)c(OC)c3o2)cc(OC)c1OC	28.1 µM (inactive)
CC1(C)N=[N+]([O-])C1(C)C	> 100 µM (inactive)
CC(C)(C)OC(=O)/C=C/[C@@H](CCC(=O)/C=C/[C@H](/C=C\CCCC(=O)O)NC1(c2ccccc2)c2ccccc2-c2ccccc21)O[Si](C)(C)C(C)(C)C	11.5 µM (inactive)
CCOC(=O)c1c(C)n(CCN2CCN(C)CC2)c2ccc(OC)cc12	30.1 µM (inactive)
CC[S+]([O-])c1c2cc(OC)ccc2nc2ccc(OC)cc12 (centres undefined)	4.71 µM (inactive)
COC(=O)CCC(C)C1CCC2C3C(C[C@H](OC(C)=O)[C@]12C)[C@@]1(C)CCC2(C[C@H]1C[C@H]3OC(C)=O)OOC1(CC[C@]3(C)C4C[C@H](OC(C)=O)[C@]5(C)C(C(C)CCC(=O)OC)CCC5C4[C@H](OC(C)=O)C[C@@H]3C1)OO2 (some centres undefined)	> 100 µM (inactive)

* * *

Tested on: MCF7
Test: NCI tumour cell line growth inhibition, 48 h
Activity calls are given as the source filed them. Cut-off read from the data, not from the text of the source: active = GI50 up to about 1.1 µM and inactive = higher. Residues, ends and D or L forms follow the SMILES beside them. *: point of attachment. Boc = CC(C)(C)OC(=O)*; OBn = c1ccc(CO*)cc1

compound	GI50
CCOc1ccc2c(c1)C(/C(C(Cl)=C(Cl)Cl)=[N+](/[O-])OC(=O)c1ccccc1)=N2	39 µM (inactive)
CC(C)C(NC(=O)C(Cc1ccccc1)NC(=O)OC(C)(C)C)C(=O)NCC(=O)OCc1ccccc1 (stereo not drawn) (Boc-Phe-Val-Gly-OBn; configuration not given here)	> 10 µM (inactive)
Cc1ccc(C(=O)/C=C2\Nc3ccccc3SC2=O)c(C)c1	31 µM (inactive)
CN(C)Nc1cc(=O)[nH]c(=O)[nH]1	> 100 µM (inactive)
O=C1CCC2(c3ccccc3)Nc3ccncc3N12 (centres undefined)	> 10 µM (inactive)
CCOC(=O)c1c(N2CCOCC2)[nH]c(=O)c(C(c2ccco2)c2c(O)c(C(=O)OCC)c(N3CCOCC3)[nH]c2=O)c1O	> 100 µM (inactive)
COC(=O)C(Cc1ccccc1)NP(=O)(O)OCC1OC(n2cc(Br)c(=O)[nH]c2=O)CC1O (centres undefined)	> 100 µM (inactive)
Cc1ccc(S(=O)(=O)N/N=C2\CC3C4C=CC3C2C4)cc1 (centres undefined)	> 100 µM (inactive)
Cc1cc(C)n(-c2nc3ccccc3c(=O)[nH]2)n1	3.78 µM (inactive)
